# tested.target: FimH-CRD (Escherichia coli, UniProt P08191)
# Construct: The first 177 amino acids of the FimH protein; thrombin tag (printed as 'fusion protein with thrombin') (cleaved yes); made in house; host or cells: bacteria (pET21b plasmid)
# Sequence (P08191 22-177): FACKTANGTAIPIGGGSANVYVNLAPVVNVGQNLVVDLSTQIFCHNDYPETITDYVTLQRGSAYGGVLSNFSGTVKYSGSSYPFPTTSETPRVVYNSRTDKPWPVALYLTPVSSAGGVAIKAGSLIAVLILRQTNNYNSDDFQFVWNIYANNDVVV
# method: Competitive binding assay by fluorescence polarization, assay 1 (compounds prepared by manual serial dilution)
readout.name: Kd (µM)
Numbers only here, please. The scale is µM.

Solved entries (count: 3):
molecule	tested.target	units.label	Kd
CN(C)c1ccc(NC(=O)Oc2cccc([C@H]3O[C@H](CO)[C@@H](O)[C@H](O)[C@@H]3O)c2)cc1	FimH-CRD (Escherichia coli, UniProt P08191)	µM	0.0146
O=C(Nc1ccc2ccccc2c1)c1cccc([C@H]2O[C@H](CO)[C@@H](O)[C@H](O)[C@@H]2O)c1	FimH-CRD (Escherichia coli, UniProt P08191)	µM	0.0226
OC[C@H]1O[C@H](O[C@@H]2[C@H](O)[C@@H](c3ccc(O)cc3)O[C@H](CO)[C@H]2O)[C@@H](O)[C@@H](O)[C@@H]1O	FimH-CRD (Escherichia coli, UniProt P08191)	µM	0.0213

Now, please, on to the next molecule.
molecule OC[C@H]1O[C@H](c2cccc(Br)c2)[C@@H](O)[C@@H](O)[C@@H]1O [Intermediate C] , Kd observed: 0.024

====

# tested.target: FimH-CRD (Escherichia coli)
# Construct: The first 177 amino acids of the FimH protein; thrombin tag (printed as 'fusion protein with thrombin') (cleaved yes); made in house; host or cells: bacteria (pET21b plasmid)
# method: Competitive binding assay by fluorescence polarization, assay 2 (compounds prepared by robotics, plates frozen and thawed)
Readings of pKd for the listed compounds
As a rule, pKd stands for the negative log10 of the concentration, concentration in M.

compound	pKd
COC(=O)c1cc(Oc2ccc([C@H]3O[C@H](CO)[C@@H](O)[C@H](O)[C@@H]3O)cc2)cc(C(=O)OC)c1 [Compound 53]	7.80

Please fill in: pKd reported for O=C(NCCCOc1cccc(C2O[C@H](CO)[C@@H](O)[C@H](O)[C@@H]2O)c1)c1ccccc1 (stereo partly shown) [Compound 219] = 7.79

For reference, reported pKd for OC[C@H]1O[C@H](c2cc(O)ccc2OC(F)(F)F)[C@@H](O)[C@@H](O)[C@@H]1O [Compound 191] stands at 7.43

Looking up COc1ccccc1NC(=O)COc1ccc(C2O[C@H](CO)[C@@H](O)[C@H](O)[C@@H]2O)cc1 (stereo partly shown) [Compound 242] , I see its pKd listed as 7.67

====

The entries below are paired with their reported Kd.
# tested.target: FimH-CRD (Escherichia coli, UniProt P08191)
# Construct: The first 177 amino acids of the FimH protein; thrombin tag (printed as 'fusion protein with thrombin') (cleaved yes); made in house; host or cells: bacteria (pET21b plasmid)
# method: Competitive binding assay by fluorescence polarization, assay 1 (compounds prepared by manual serial dilution)
State the answer as a number, implicitly in nM.

Record OC[C@H]1O[C@H](O[C@@H]2[C@H](O)[C@@H](c3cccc(-c4cncnc4)c3)O[C@H](CO)[C@H]2O)[C@@H](O)[C@@H](O)[C@@H]1O [Compound 279] , field Kd: 9.9

// recorded Kd for COC(=O)CCc1ccc(OC)c([C@H]2O[C@H](CO)[C@@H](O)[C@H](O)[C@@H]2O)c1 [Compound 42] : 58.4

The reported Kd of the compound CNC(=O)c1cccc([C@H]2O[C@H](CO)[C@@H](O)[C@H](O)[C@@H]2O)c1 [Compound 35] was 56.2

For record OC[C@H]1O[C@H](c2cccc(-c3ccc4[nH]ccc4c3)c2)[C@@H](O)[C@@H](O)[C@@H]1O [Compound 15] the listed Kd is 48.2

Reported Kd of CNC(=O)c1ccc(-c2ccc([C@H]3O[C@H](CO)[C@@H](O)[C@H](O)[C@@H]3O)cc2)cc1 [Compound 296] : 5

====

# tested.target: FimH-CRD (Escherichia coli, UniProt P08191)
# Construct: The first 177 amino acids of the FimH protein; thrombin tag (printed as 'fusion protein with thrombin') (cleaved yes); made in house; host or cells: bacteria (pET21b plasmid)
# method: Competitive binding assay by fluorescence polarization, assay 2 (compounds prepared by robotics, plates frozen and thawed)
Examples of molecules with documented pKd follow.
Scale: pKd equals -log10([C]), with [C] in mol/L.

Use the examples below as a reference point.
molecule	tested.target	pKd
OC[C@H]1O[C@H](c2cccc(-c3cncnc3)c2)[C@@H](O)[C@@H](O)[C@@H]1O	FimH-CRD (Escherichia coli, UniProt P08191)	8.00
OC[C@H]1O[C@H](c2cccc(CCc3ccccc3)c2)[C@@H](O)[C@@H](O)[C@@H]1O	FimH-CRD (Escherichia coli, UniProt P08191)	7.66
Cc1c(Br)cccc1[C@H]1O[C@H](CO)[C@@H](O)[C@H](O)[C@@H]1O	FimH-CRD (Escherichia coli, UniProt P08191)	7.41
CC(C)(C)OC(=O)NCc1nnc(-c2ccc(-c3cccc([C@H]4O[C@H](CO)[C@@H](O)[C@H](O)[C@@H]4O)c3)cc2)o1	FimH-CRD (Escherichia coli, UniProt P08191)	7.62
Cn1cnc2cc(-c3cccc([C@H]4O[C@H](CO)[C@@H](O)[C@H](O)[C@@H]4O)c3)ccc21	FimH-CRD (Escherichia coli, UniProt P08191)	7.69
CNC(=O)c1cccc(-c2ccc(-c3ccc([C@H]4O[C@H](CO)[C@@H](O)[C@H](O)[C@@H]4O)cc3)c(C)c2)c1	FimH-CRD (Escherichia coli, UniProt P08191)	7.69

Record summary for Cc1nnc(-c2ccc(-c3cccc([C@H]4O[C@H](CO)[C@@H](O)[C@H](O)[C@@H]4O)c3)c(C)c2)o1 : reported pKd = 7.86

Value of pKd reported for the molecule OC[C@H]1O[C@H](c2cccc(C#Cc3ccccc3)c2)[C@@H](O)[C@@H](O)[C@@H]1O is 7.63

pKd reported for this molecule OC[C@H]1O[C@H](c2cccc(COc3cc(Cl)cc(Cl)c3)c2)[C@@H](O)[C@@H](O)[C@@H]1O : 7.65

# pKd of O=C(COc1ccc(C2O[C@H](CO)[C@@H](O)[C@H](O)[C@@H]2O)cc1)C1CC1 (stereo partly shown) = 7.85

Recorded pKd (molecule OC[C@H]1O[C@H](c2ccc3cc(O)ccc3c2)[C@@H](O)[C@@H](O)[C@@H]1O ): 7.78

Note to self: pKd recorded for CNC(=O)c1cc(C#Cc2cc([C@H]3O[C@H](CO)[C@@H](O)[C@H](O)[C@@H]3O)ccc2OC)cc(C(=O)NC)c1 was 7.56

The recorded pKd for entry OC[C@H]1OC(c2cccc(OCc3ccccc3-c3ccccc3)c2)[C@@H](O)[C@@H](O)[C@@H]1O (stereo partly shown) equals 7.78

pKd in this record for COC(=O)c1ccc(C#Cc2cccc([C@H]3O[C@H](CO)[C@@H](O)[C@H](O)[C@@H]3O)c2)cc1 : 8.17

Reported pKd ( CC(C)C(=O)Nc1ccc(Oc2cccc([C@H]3O[C@H](CO)[C@@H](O)[C@H](O[C@H]4O[C@H](CO)[C@@H](O)[C@H](O)[C@@H]4O)[C@@H]3O)c2)cc1 ) = 7.66

Looking up COCCCOc1ccc(C2O[C@H](CO)[C@@H](O)[C@H](O)[C@@H]2O)cc1 (stereo partly shown) , I see its pKd listed as 7.99

====

Entries and their pKd values follow.
# tested.target: FimH-CRD (Escherichia coli)
# Construct: The first 177 amino acids of the FimH protein; thrombin tag (printed as 'fusion protein with thrombin') (cleaved yes); made in house; host or cells: bacteria (pET21b plasmid)
# method: Competitive binding assay by fluorescence polarization, assay 1 (compounds prepared by manual serial dilution)
# Experimental: The first 177 amino acids of the FimH protein were expressed as a fusion protein with thrombin in a pET21b plasmid in bacteria. This FimH protein sequence contains the carbohydrate recognition domain (CRD) and shall be termed FimH-CRD. […] A competitive binding assay by fluorescence polarization was performed using 5 nM of the Alexa 647 mannoside probe and 60 nM of the FimH-CRD. […]
pKd: −log10 of the molar value.

Before answering, review these 2 worked examples.
Cc1nnc(-c2cccc(-c3ccc([C@H]4O[C@H](CO)[C@@H](O)[C@H](O)[C@@H]4O)cc3)c2)o1 > 8.30
COC(=O)c1cc(Oc2ccc([C@H]3O[C@H](CO)[C@@H](O)[C@H](O)[C@@H]3O)cc2)cc(C(=O)OC)c1 > 8.30

In the following, a different compound is considered.
Summary: CNC(=O)c1cccc(Oc2cccc([C@H]3O[C@H](CO)[C@@H](O)[C@H](O[C@H]4O[C@H](CO)[C@@H](O)[C@H](O)[C@@H]4O)[C@@H]3O)c2)c1 , FimH-CRD (Escherichia coli), pKd = > 8.30
